Just for reference, patent US20250011363A1 is where these values come from.

# studySystem: acetylcholine receptor
# testProtocol: SPR, AchR immobilised on chip, peptide 10 uM
Binary call on Binding affinity (RU) with cut-off 100 RU: strictly below means true, and equality or higher means false.

Example entries begin here.
RRGISR [6mer-1-234] ... false
RKQRTK [6mer-1-260] ... false
RHNVK [5mer-842] ... true
KTEGR [5mer-812] ... true
RKLISR [6mer-1-236] ... false
KFDAR [5mer-1129] ... true
RPTNR [5mer-805] ... true

Kindly consider the entry below.
Incoming: Lab note: Binding affinity (RU) threshold 100 RU. Does this binder come in strictly under it? RFCWR [5mer-828]
Outgoing: true
